# Tested on: Sam68 (KHDRBS1)
# method summary: Sam68 small-molecule binders, primary screen, biochemical, small-molecule microarray, 635 nm fluorescence (AID 1125);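 further: score merges 667 nm channel intensity with signal to noise over triplicate slides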
# run conditions: small-molecule microarray binding, higher = more signal
measurement kind: composite z-score

Use these answered entries as a reference point.
1. COC(=O)[C@H](C)NC(=O)CCC1CC(OC(=O)NCc2cccc3ccccc23)CC2(CCCC(COC(=O)NCCc3ccc(Cl)cc3)O2)O1 (stereo partly drawn)    1.23
2. O=C(NN=C1C[C@@H](O)[C@@H](O)[C@@H]2[C@@H]3C(=O)N(c4cccc(Oc5ccccc5)c4)C(=O)[C@@H]3CC[C@@H]12)OCc1ccccc1    0.24

[in] So what does the record say about composite z-score for CCOC(=O)[C@H](CC(C)C)NC(=O)CCC1CC(OC(=O)NCc2cccc3ccccc23)CC2(CCCC(COC(=O)NCCN3CCOCC3)O2)O1 (stereo partly drawn) ?
[out] 1.3

====

Entries and their measured z-score follow.
# assay target: NADPH oxidase 5 (Homo sapiens) (UniProt Q96PH1)
# Sequence (Q96PH1 whole entry, looked up): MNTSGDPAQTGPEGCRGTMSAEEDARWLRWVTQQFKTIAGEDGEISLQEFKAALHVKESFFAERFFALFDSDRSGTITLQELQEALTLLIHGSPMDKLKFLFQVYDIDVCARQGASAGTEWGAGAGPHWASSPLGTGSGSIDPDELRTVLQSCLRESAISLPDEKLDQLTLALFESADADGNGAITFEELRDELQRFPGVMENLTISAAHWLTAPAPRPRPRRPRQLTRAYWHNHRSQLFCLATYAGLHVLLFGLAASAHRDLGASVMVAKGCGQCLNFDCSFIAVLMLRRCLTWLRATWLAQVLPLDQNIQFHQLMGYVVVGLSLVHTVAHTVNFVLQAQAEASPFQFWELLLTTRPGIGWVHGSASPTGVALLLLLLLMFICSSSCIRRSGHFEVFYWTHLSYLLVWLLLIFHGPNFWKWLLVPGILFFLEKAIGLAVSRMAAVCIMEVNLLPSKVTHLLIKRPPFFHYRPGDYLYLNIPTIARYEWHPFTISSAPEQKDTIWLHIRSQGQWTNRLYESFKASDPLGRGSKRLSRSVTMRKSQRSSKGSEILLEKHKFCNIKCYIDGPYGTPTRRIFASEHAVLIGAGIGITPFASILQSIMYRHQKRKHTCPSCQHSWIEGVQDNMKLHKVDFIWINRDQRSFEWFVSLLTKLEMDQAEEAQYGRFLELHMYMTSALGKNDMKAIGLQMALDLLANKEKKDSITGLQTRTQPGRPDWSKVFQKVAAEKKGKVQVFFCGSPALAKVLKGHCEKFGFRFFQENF
# method summary: NOX5-dependent H2O2 signal modulators, primary screen, NOX inhibitor project, cell-based, HEK293-NOX5, Amplex Red fluorescence (AID 1161)
# run conditions: HEK293-NOX5, ionomycin, 45 min, higher = more signal
Provide a numeric answer; units are not to be included.

1) CC(C)(C)N1C(=O)[C@H]2[C@H]3[C@H](O)[C@H](O)CC(=NO[C@@H]4O[C@H](CO)[C@@H](O)[C@H](O)[C@H]4O)[C@@H]3CC[C@H]2C1=O    -2.07
2) O=C(NN=C1C[C@@H](O)[C@@H](O)[C@@H]2[C@@H]3C(=O)N(c4cccc(Oc5ccccc5)c4)C(=O)[C@@H]3CC[C@@H]12)OCc1ccccc1    0.134
3) CCCC[C@@H](O)C1=C(C)C[C@H]2C(=O)N(Cc3ccccc3)C(=O)[C@H]2[C@H]1CO    -0.0632
4) CC(=O)OC[C@H]1O[C@H](C#CCCCc2ccccc2)C=C[C@@H]1OC(C)=O    0.839
5) CN1C(=O)C2C=CC(C(O)C(c3ccccc3)c3ccccc3)N(NC(=O)OC(C)(C)C)C2C1=O (configuration not stated)    -1.76

[in] Fill in: z-score of CC(C)NC(=O)[C@@]1(c2ccc([N+](=O)[O-])cc2)CC(=O)N(CC23CC4CC(CC(C4)C2)C3)[C@@H]1c1ccc(CO)cc1I is ___
[out] 1.35

[in] What does the data say about its z-score? Entry: C[C@H]1Cc2c(-c3ccccc3)nc3c(c2CO1)CN(CCOc1ccccc1)CC3
[out] -0.605

[in] Requested read-out: z-score. Entry: CO[C@H]1COC(=O)[C@@H]2CCCN2C(=O)CC=C[C@@H](C)[C@H](OC)COC(=O)CC=C[C@@H]1C
[out] 0.557

[in] Param item = CC(=O)OC[C@H]1O[C@@H](ON=C[C@@H](C)[C@H](OCc2ccccc2)C(C)C)[C@H](OC(C)=O)[C@@H](OC(C)=O)[C@@H]1OC(C)=O ; retrieve measured z-score.
[out] -0.856

[in] Given CC(C)OC(=O)C=C1C[C@@H](c2ccc(C#N)cc2)O[C@@H](c2ccc(C#N)cc2)O1 , state its recorded z-score.
[out] -0.607
